Numbers sourced from patent US7923561B2.

Ki listing for selected compounds.
experimental-system: recombinant human 5-HT5A receptor (Homo sapiens, UniProt P47898)
Sequence (P47898 whole entry): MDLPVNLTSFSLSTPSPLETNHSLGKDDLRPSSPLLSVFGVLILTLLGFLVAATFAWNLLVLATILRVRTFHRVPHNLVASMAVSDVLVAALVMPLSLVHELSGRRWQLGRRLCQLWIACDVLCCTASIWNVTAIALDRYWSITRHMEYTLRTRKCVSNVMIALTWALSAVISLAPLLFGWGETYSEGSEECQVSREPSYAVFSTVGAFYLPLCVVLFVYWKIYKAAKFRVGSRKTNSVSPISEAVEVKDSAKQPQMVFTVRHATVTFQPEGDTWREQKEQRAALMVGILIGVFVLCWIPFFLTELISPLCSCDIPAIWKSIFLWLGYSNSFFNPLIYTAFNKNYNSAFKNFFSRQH
test: [3H]LSD radioligand binding assay, membranes of HEK-EBNA cells transiently expressing 5-HT5A receptors
setup-conditions: [3H]LSD approx. 1 nM, SPA beads, 120 min at room temperature; Ki from IC50 by Cheng-Prussoff equation
All answers are understood in nM, so give the number only.

Here's what some known entries look like.
Cc1nc(CNc2cccc3nc(N[C@@H]4CCc5ccccc54)ccc23)c[nH]1: 7.57
CON=C(c1ccc(C)cc1)c1cccc2nc(N[C@@H]3CCc4ccccc43)ccc12: 49.8
c1ccc(-c2cccc3nc(N[C@@H]4CCc5ccccc54)ccc23)cc1: 229
c1ccc2c(c1)CC[C@H]2Nc1ccc2c(NCc3cc[nH]n3)cccc2n1: 13.6
Fc1ccc(Oc2cccc3nc(N[C@@H]4CCc5ccccc54)ccc23)cc1: 90.9

So what's the measured Ki for this one? "COc1ccc(C(=NO)c2cccc3nc(N[C@@H]4CCc5ccccc54)ccc23)cc1"
4.11

Please do the same for "Clc1ccc(Nc2cccc3nc(N[C@@H]4CCc5ccccc54)ccc23)cc1" as well.
2.84

Please do the same for COc1cccc2c1C(Nc1ccc3c(NCc4c[nH]nn4)cccc3n1)CCC2 (racemic) as well.
15.3
